Measurement Target: cynomolgus PSMA, full-length, on CHO cells (cynomolgus, UniProt A0A2K5VNZ0 1-750)
Method Notes: cell-based or functional assay
Value Kind: His-ZAP cell killing, cyno PSMA Average EC50 (pM)
Return type: number; implicit unit pM.

Below are worked cases with known answers.
Binder	Recorded Value
1.1-6GS-2.1 (bispecific antibody) EVQLLESGGGLVQPGGSLRLSCAASGFSFSSYAMSWVRQAPGKGLEWVSSIGENDGTTDYADSVKGRFTISRDNSKSMLYLQMNSLRVEDTAVYYCVKDGVHWGQGTLVTVSSGGGGSGGGGSGGGGSGGGGSGGGGSGGGGSEVQLVESGGGVVQPGRSLRLSCAASGFSFSGYGMHWVRQAPGKGLEWVAYISYDGSNKYYADSVKGRFTISRDNSKNTLYLQMNSLRAEDTAVYYCAKDPAWGLRLGESSSYDFDIWGQGTMVTVSS	12
1.16-6GS-2.22 (bispecific antibody, linker (G4S)6) EVQLLESGGGLVQPGGSLRLSCAASGFSFSSYALSWVRQAPGKGLEWVSSIGENNHTTDYADTVKGRFTISRDNSKNTLYLQMNSLRVEDTAVYYCVKDGVHWGQGTLVTVSSGGGGSGGGGSGGGGSGGGGSGGGGSGGGGSEVQLVESGGGVVQPGRSLRLSCAASGFSFSGYGTHWVRQAPGKGLEWVAYISYDGSNKYYAAPVKGRFTISRDNSKNTLYLQMNSLRAEDTAVYYCAKDAAWGLRLGESSSYDFDIWGQGTMVTVSS	11
1.1-6GS-2.22 (bispecific antibody) EVQLLESGGGLVQPGGSLRLSCAASGFSFSSYAMSWVRQAPGKGLEWVSSIGENDGTTDYADSVKGRFTISRDNSKSMLYLQMNSLRVEDTAVYYCVKDGVHWGQGTLVTVSSGGGGSGGGGSGGGGSGGGGSGGGGSGGGGSEVQLVESGGGVVQPGRSLRLSCAASGFSFSGYGTHWVRQAPGKGLEWVAYISYDGSNKYYAAPVKGRFTISRDNSKNTLYLQMNSLRAEDTAVYYCAKDAAWGLRLGESSSYDFDIWGQGTMVTVSS	7.8

// field: His-ZAP cell killing, cyno PSMA Average EC50; key: 1.1-6GS-2.15 (bispecific antibody) EVQLLESGGGLVQPGGSLRLSCAASGFSFSSYAMSWVRQAPGKGLEWVSSIGENDGTTDYADSVKGRFTISRDNSKSMLYLQMNSLRVEDTAVYYCVKDGVHWGQGTLVTVSSGGGGSGGGGSGGGGSGGGGSGGGGSGGGGSEVQLVESGGGVVQPGRSLRLSCAASGFSFSGYGLHWVRQAPGKGLEWVAYISYDKSNKYYADKVKGRFTISRDNSKNTLYLQMNSLRAEDTAVYYCAKDPAWGLRLGESSSYDFDIWGQGTMVTVSS ; value = 8.6

# binder 1.18-6GS-2.17 (bispecific antibody, linker (G4S)6) EVQLLESGGGLVQPGGSLRLSCAASGFSFSSYALSWVRQAPGKGLEWVSSIGENNATTDYAASVKGRFTISRDNSKNTLYLQMNSLRVEDTAVYYCVKDGVHWGQGTLVTVSSGGGGSGGGGSGGGGSGGGGSGGGGSGGGGSEVQLVESGGGVVQPGRSLRLSCAASGFSFSGYGMHWVRQAPGKGLEWVAYISYDASNKYYADNVKGRFTISRDNSKNTLYLQMNSLRAEDTAVYYCAKDPAWGLRLGESSSYDFDIWGQGTMVTVSS ; its His-ZAP cell killing, cyno PSMA Average EC50 = 5.6

The binder listed as 1.18-6GS-2.1 (bispecific antibody, linker (G4S)6) EVQLLESGGGLVQPGGSLRLSCAASGFSFSSYALSWVRQAPGKGLEWVSSIGENNATTDYAASVKGRFTISRDNSKNTLYLQMNSLRVEDTAVYYCVKDGVHWGQGTLVTVSSGGGGSGGGGSGGGGSGGGGSGGGGSGGGGSEVQLVESGGGVVQPGRSLRLSCAASGFSFSGYGMHWVRQAPGKGLEWVAYISYDGSNKYYADSVKGRFTISRDNSKNTLYLQMNSLRAEDTAVYYCAKDPAWGLRLGESSSYDFDIWGQGTMVTVSS shows His-ZAP cell killing, cyno PSMA Average EC50 equal to 5.8
